Target: T1, ST2 on the effector cells (KU812, KU812/NF-κB-1#, HUVEC, HMC-1) (human, UniProt Q01638 19-556)
T1 sequence (looked up): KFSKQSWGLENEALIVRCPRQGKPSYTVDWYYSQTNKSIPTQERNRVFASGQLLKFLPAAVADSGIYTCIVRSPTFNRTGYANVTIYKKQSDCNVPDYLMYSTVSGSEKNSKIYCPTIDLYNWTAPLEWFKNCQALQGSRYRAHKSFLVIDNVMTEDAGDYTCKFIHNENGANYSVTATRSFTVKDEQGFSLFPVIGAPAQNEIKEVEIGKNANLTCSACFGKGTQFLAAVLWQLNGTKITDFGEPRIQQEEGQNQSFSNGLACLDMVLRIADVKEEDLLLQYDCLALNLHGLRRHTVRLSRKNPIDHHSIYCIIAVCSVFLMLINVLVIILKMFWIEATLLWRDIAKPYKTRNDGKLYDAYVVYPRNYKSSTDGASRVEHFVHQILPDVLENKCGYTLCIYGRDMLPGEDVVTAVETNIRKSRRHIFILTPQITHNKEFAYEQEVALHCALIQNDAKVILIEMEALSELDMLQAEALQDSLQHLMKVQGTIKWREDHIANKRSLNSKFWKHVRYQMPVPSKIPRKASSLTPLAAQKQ
Assay: cell-based or functional assay
Threshold rule: Maximum inhibition rate, KU812-IL5 production by reduced IL33 greater than or equal to 90% is Satisfied; below that, Not satisfied.

Item 5888-153-H0L1 (antibody, human IgG4 S228P, kappa, V domains shown, Humanized antibody) VH: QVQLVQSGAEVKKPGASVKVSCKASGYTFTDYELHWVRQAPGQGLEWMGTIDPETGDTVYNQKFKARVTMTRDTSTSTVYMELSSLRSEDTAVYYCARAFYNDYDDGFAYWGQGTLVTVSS VL: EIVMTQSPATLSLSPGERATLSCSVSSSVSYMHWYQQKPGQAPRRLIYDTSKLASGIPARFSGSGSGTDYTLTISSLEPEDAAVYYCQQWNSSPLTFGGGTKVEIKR with Maximum inhibition rate, KU812-IL5 production by reduced IL33 of 90% or above?
Not satisfied

Exam item: decide whether the reported Maximum inhibition rate, KU812-IL5 production by reduced IL33 for Control antibody CNTO7160 (antibody, human IgG4 S228P, kappa, V domains shown, Known anti-ST2 control antibody) VH: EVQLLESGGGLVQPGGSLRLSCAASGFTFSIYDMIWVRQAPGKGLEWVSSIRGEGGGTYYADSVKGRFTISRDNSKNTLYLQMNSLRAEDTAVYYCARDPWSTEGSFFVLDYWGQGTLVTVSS VL: EIVLTQSPATLSLSPGERATLSCRASQSVDDDLAWYQQKPGQAPRLLIYDASNRATGIPARFSGSGSGTDFTLTISSLEPEDFAVYYCQQYITAPLTFGQGTKVEIKR is at least 90%.
Satisfied

Dear colleague, could you confirm whether 5888-153-H3L2 (antibody, human IgG4 S228P, kappa, V domains shown, Humanized antibody) VH: QVQLVQSGAEVKKPGASVKVSCKASGYTFTDYELHWVRQAPGQGLEWMGTIDPETGDTVYNQKFKARVTMTADKSTSTAYMELSSLRSEDTAVYYCTRAFYNDYDDAFAYWGQGTLVTVSS VL: EIVMTQSPATLSLSPGERATLSCSVSSSVSYMHWYQQKPGQAPRRLIYDTSKLASGIPARFSGSGSGTDYTLTISSLEPEDAAVYYCQQWNTSPLTFGGGTKVEIKR has Maximum inhibition rate, KU812-IL5 production by reduced IL33 at or above 90%?
Not satisfied

Maximum inhibition rate, KU812-IL5 production by reduced IL33 >= 90% for 5888-379-H1L0 (antibody, human IgG4 S228P, kappa, V domains shown, Humanized antibody) VH: QVQLVQSGAEVKKPGASVKVSCKASGYTFINYGMNWVRQAPGQRLEWMGWINTYIGEPTYGDNFKGRVTITRDTSASTAYMELSSLRSEDTAVYYCAREGEGFAYWGQGTLVTVSS VL: DIQMTQSPSSLSASVGDRVTITCKSSQSLLYSGNQNNYLAWYQQKPGKVPKLLIYGASTRESGVPSRFSGSGSGTDFTLTISSLQPEDVATYYCQNDHSYPYTFGGGTKVEIKR ?
Satisfied

Determine whether this binder has Maximum inhibition rate, KU812-IL5 production by reduced IL33 no lower than 90%: 5887-41-H1L0 (antibody, human IgG4 S228P, kappa, V domains shown, Humanized antibody) VH: QVQLQESGPGLVKPSQTLSLTCTVSGYSITSDYAWDWIRQPPGKGLEWIGYIRYSGDTYYNPSLKSRVTISRDTSKNQFSLKLSSVTAADTAVYYCATTMMDTMDYWGQGTLVTVSS VL: DIVLTQSPASLAVSPGQRATITCRASKSVSTSGNSYMHWYQQKPGQPPKLLIYLASNLESGVPARFSGSGSGTDFTLTINPVEANDTANYYCQHSREFPLTFGQGTKLEIKR
Not satisfied

Data provenance: patent US12624112
